Target: ENaC (Epithelial Sodium Channel) (Mus musculus, UniProt Q61180+Q9WU38+Q9WU39)
Construct: Mouse kidney M−1 cells were cultivated in DMEM; endogenous in cells; host or cells: Mouse kidney M-1 cells, cultivated with dexamethasone on transwell filters
Sequence (Q61180 1-699): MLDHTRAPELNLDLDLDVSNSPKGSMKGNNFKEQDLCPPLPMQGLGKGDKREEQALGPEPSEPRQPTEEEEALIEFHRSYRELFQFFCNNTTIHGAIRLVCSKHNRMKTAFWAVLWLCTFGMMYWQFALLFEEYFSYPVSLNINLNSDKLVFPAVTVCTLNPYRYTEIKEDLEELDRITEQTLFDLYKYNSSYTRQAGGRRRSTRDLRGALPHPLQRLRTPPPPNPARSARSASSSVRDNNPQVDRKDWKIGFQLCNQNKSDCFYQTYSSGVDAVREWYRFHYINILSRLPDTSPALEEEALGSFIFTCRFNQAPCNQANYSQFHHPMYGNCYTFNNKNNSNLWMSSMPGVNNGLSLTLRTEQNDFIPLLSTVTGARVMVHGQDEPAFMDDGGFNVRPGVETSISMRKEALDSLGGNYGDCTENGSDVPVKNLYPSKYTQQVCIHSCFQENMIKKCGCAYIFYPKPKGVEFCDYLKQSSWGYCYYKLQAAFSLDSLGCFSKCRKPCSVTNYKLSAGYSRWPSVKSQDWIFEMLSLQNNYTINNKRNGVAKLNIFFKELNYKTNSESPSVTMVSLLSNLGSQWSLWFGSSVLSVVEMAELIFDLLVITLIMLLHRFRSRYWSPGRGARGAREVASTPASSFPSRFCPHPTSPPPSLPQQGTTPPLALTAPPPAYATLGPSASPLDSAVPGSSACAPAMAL
Sequence (Q9WU38 1-638): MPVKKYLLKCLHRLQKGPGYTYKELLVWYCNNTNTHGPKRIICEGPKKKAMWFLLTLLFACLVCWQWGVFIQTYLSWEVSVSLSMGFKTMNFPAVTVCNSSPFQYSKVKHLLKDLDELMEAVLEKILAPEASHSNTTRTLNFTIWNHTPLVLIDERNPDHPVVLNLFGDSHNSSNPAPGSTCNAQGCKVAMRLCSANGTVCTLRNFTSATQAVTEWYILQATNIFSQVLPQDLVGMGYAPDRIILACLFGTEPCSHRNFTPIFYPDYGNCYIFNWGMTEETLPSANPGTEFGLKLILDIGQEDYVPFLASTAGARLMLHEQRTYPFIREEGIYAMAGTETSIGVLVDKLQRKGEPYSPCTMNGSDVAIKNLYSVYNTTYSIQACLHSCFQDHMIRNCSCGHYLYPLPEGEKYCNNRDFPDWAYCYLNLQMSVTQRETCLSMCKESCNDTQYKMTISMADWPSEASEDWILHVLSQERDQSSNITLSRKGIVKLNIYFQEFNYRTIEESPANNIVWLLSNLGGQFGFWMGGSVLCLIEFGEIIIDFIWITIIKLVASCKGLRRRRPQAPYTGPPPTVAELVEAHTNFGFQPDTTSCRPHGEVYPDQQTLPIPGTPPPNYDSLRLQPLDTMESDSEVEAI
Sequence (Q9WU39 1-655): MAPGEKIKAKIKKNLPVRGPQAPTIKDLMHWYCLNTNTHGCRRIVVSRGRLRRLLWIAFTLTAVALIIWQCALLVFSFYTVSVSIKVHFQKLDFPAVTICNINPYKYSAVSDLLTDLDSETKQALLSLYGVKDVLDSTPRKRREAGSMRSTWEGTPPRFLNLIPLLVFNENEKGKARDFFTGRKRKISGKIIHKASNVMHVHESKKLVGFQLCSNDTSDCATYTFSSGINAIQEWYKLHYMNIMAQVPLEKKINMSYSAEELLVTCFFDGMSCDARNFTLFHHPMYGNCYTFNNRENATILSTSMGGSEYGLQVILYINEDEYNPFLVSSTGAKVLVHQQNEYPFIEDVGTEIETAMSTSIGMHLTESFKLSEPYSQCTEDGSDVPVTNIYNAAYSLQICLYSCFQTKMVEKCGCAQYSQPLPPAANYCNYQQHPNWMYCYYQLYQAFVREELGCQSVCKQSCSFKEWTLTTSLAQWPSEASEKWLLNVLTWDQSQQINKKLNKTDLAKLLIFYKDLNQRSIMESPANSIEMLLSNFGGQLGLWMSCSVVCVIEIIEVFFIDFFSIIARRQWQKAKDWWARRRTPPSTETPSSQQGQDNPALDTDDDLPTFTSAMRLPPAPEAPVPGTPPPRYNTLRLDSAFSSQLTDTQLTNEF
Assay: Ussing Chamber assay (short circuit current, amiloride sensitive I_SC)
Assay type: cell-based
Settings: Ussing chamber, mouse kidney M-1 cells, short circuit current; value printed in the example text with μM; read-out: IC50
Where a name gives a salt, the structure may show the parent alone.
Friendly reminder: IC50 below 0.1 µM is satisfied, at or above is not satisfied.

Query :: Check if IC50 falls below 0.1 µM for COC(=O)C[N+]1(CCCc2ccc(OC)cc2)CCCC(NC(=O)c2nc(Cl)c(N)nc2N)C1 (centres unmarked) .
Result :: not satisfied

Query :: Would you kindly repeat that for COC(=O)c1ccc(CCC[N+]2(CCCc3ccc(C(=O)OC)cc3)CCCC(NC(=O)c3nc(Cl)c(N)nc3N)C2)cc1 (centres unmarked) ?
Result :: not satisfied

Query :: Would you kindly repeat that for COC(=O)CNC(=O)c1ccc(CCC[N+]2(CCCc3ccc(OC)cc3)CCCC(NC(=O)c3nc(Cl)c(N)nc3N)C2)cc1 (centres unmarked) ?
Result :: satisfied

Query :: Would you kindly repeat that for COc1ccc(CCC[N+]2(C)CCC(NC(=O)c3nc(Cl)c(N)nc3N)C2)cc1 (centres unmarked) ?
Result :: not satisfied

Query :: Would you kindly repeat that for "COC(=O)COc1cccc(CCC[N+]2(CCCc3cccc(OCC(=O)OC)c3)CCC[C@H](NC(=O)c3nc(Cl)c(N)nc3N)C2)c1" ?
Result :: satisfied

Query :: Would you kindly repeat that for COc1ccc(CCC[N+]2(CC(=O)OC3CCCCC3)CCCC(NC(=O)c3nc(Cl)c(N)nc3N)C2)cc1 (centres unmarked) ?
Result :: not satisfied

Query :: Would you kindly repeat that for COc1ccc(CCC[N+]2(CC(=O)O)CCCC(NC(=O)c3nc(Cl)c(N)nc3N)C2)cc1 (centres unmarked) ?
Result :: not satisfied

Query :: Would you kindly repeat that for COc1ccc(CCC[N+]2(CCCc3ccc(C(=O)[O-])cc3)CCCC(NC(=O)c3nc(Cl)c(N)nc3N)C2)cc1 (centres unmarked) ?
Result :: not satisfied

Query :: Would you kindly repeat that for Nc1nc(N)c(C(=O)NC2CCC[N+](CCCc3ccc(C(=O)[O-])cc3)(CCCc3ccc(C(=O)O)cc3)C2)nc1Cl (centres unmarked) ?
Result :: not satisfied

Query :: Would you kindly repeat that for Nc1nc(N)c(C(=O)NC2CCC[N+](CCCc3ccc(C(=O)NCCOCCOCCO)cc3)(CCCc3ccc(C(=O)NCCOCCOCCO)cc3)C2)nc1Cl (centres unmarked) ?
Result :: not satisfied

Query :: Would you kindly repeat that for "COc1ccc(CCC[N+](C)(CCCc2ccc(OC)cc2)C[C@H](CC(=O)O)NC(=O)c2nc(Cl)c(N)nc2N)cc1" ?
Result :: not satisfied

Query :: Would you kindly repeat that for COC(=O)c1ccc(CCC[N+]2(CCCc3ccc(OC)cc3)CCCC(NC(=O)c3nc(Cl)c(N)nc3N)C2)cc1 (centres unmarked) ?
Result :: satisfied

Query :: Would you kindly repeat that for Nc1nc(N)c(C(=O)NC2CCC[N+](CCCc3ccc(OCC(=O)O)cc3)(CCCc3ccc(OCC(=O)O)cc3)C2)nc1Cl (centres unmarked) ?
Result :: not satisfied

Query :: Would you kindly repeat that for COC(=O)COc1ccc(CCC[N+]2(CCCc3ccc(OCC(=O)OC)cc3)CCCC(NC(=O)c3nc(Cl)c(N)nc3N)C2)cc1 (centres unmarked) [Example 6, trifluoroacetate] ?
Result :: satisfied
